Tested on: T-47D breast
Assay overview: NCI tumour cell line growth inhibition, 48 h
Assay endpoint: TGI

Value of measured TGI for the entry CC(=O)OCC1OC(n2c3c(c(-c4ccc(Cl)cc4)c(C#N)c2=S)C(=O)CC(C)(C)C3)C(OC(C)=O)C(OC(C)=O)C1OC(C)=O (stereo not given) : > 27.7 µM

Value of measured TGI for the entry CC(=O)n1nc(-c2nc3ccccc3nc2Cl)cc1Cl : > 100 µM

Value of measured TGI for the entry Cc1cn(CC2=NCC(C)(C)CN2)c(=O)[nH]c1=O : > 100 µM

Value of measured TGI for the entry COc1cc(-c2nc(SCC(=O)Nc3ccc(C(C)=O)cc3)[nH]c(=O)c2C#N)cc(OC)c1OC : > 100 µM

Value of measured TGI for the entry O=C(CSCC(=O)N/N=C/c1cccc(OCc2ccccc2)c1)N/N=C/c1cccc(OCc2ccccc2)c1 : > 100 µM

Value of measured TGI for the entry CN(C)c1ccc(/C=C2\N=C(N/N=C/c3ccccc3)NC2=O)cc1 : > 100 µM

Value of measured TGI for the entry CCCCSCc1nc2nc(Cl)c(Cl)nc2[nH]1 : 62.9 µM

Value of measured TGI for the entry Cn1cc2c(=O)n3ncn(-c4ccc(Br)cc4)c3nc2n1 : > 100 µM

Value of measured TGI for the entry CCCCN(CCCC)CC(C)(C)C(O)c1ccc(OC)c2ccccc12 (stereo not given) : 17 µM

Value of measured TGI for the entry CN(C)CCOc1nc2c3cccnc3cc(-c3cccc(Cl)c3)c2c2ncccc12 : 6.39 µM

* * *

Tested on: MOLT-4 leukemia
Assay overview: NCI tumour cell line growth inhibition, 48 h
For each record, write down the corresponding TGI.

Value of measured TGI for the entry O=C(CCc1ccccc1)On1nnc2ccccc2c1=O : > 100 µM

Value of measured TGI for the entry CC12CCc3ccccc3C1=Nc1ccccc12 (stereo unspecified) : 58.5 µM

Value of measured TGI for the entry O=C(/C=C/c1c(O)ccc2ccccc12)c1cccc2ccccc12 : > 100 µM

Value of measured TGI for the entry NC(C(F)(F)F)(C(F)(F)F)P(=O)(c1ccccc1)c1ccccc1 : > 100 µM

Value of measured TGI for the entry O=C(NCCCNC(=O)OCc1ccc2c(Br)cc(Br)c(O)c2n1)OCc1ccc2c(Br)cc(Br)c(O)c2n1 : > 100 µM

Value of measured TGI for the entry Cc1cccc2c1Oc1cc(Cl)ccc1C2NC(=O)CN(C)C (stereo unspecified) : > 100 µM

Value of measured TGI for the entry COc1cc(/C=C2/SC(c3ccccc3)N(c3ccc(Cl)cc3)C2=O)cc(OC)c1OC (stereo unspecified) : > 100 µM

Value of measured TGI for the entry COc1cc2c(cc1OC)C(Cl)C(c1ccc(Cl)cc1)=C2Cl (stereo unspecified) : 42.5 µM

Value of measured TGI for the entry Nc1nc(N)nc(-c2cnccn2)n1 : > 100 µM

Value of measured TGI for the entry CC(C)CNc1nc(N)[nH]c(=O)c1NC=O : > 100 µM

Value of measured TGI for the entry CCOC(=O)c1nnsc1NC(=O)Nc1ccc(Cl)cc1 : > 100 µM

Value of measured TGI for the entry COc1cc(C)cc2c1C(=O)C(Br)=CC2=O : 5.19 µM

Value of measured TGI for the entry CC(C)CC(CNC(Cc1ccc(Cl)cc1)C(N)=O)NC(=O)C(Cc1cnc[nH]1)NC(=O)CNC(=O)C(NC(=O)C(C)NC(=O)C(Cc1c[nH]c2ccccc12)NC(=O)C(CCC(=O)O)NC(=O)C(N)Cc1ccccc1)C(C)C (stereo unspecified) : > 133 µM

Value of measured TGI for the entry COc1ccc(/C(Cl)=C(\C=O)c2ccc(Br)cc2)cc1OC : > 100 µM

Value of measured TGI for the entry C[C@@H]1C[C@@H](O)[C@@]2(O)C13CC(=O)OC(C3)[C@@H](C)[C@@]2(C)CO (stereo partly specified) : > 100 µM

Value of measured TGI for the entry Oc1ccc(Br)cc1/C=N/NC(=S)NC12CC3CC(CC(C3)C1)C2 : 6.81 µM

Value of measured TGI for the entry Cc1ccc(S(=O)(=O)[N-]C2C(=O)c3ccccc3C(=O)C2[n+]2cccc(C(N)=O)c2)cc1 (stereo unspecified) : > 100 µM

Value of measured TGI for the entry COc1cccc2c1cc([N+](=O)[O-])c1c(C(=O)O)cc3c(c12)OCO3 : > 100 µM

Value of measured TGI for the entry CC1CCCN(CC(O)CN2CCCc3ccccc32)C1 (stereo unspecified) : > 100 µM

Value of measured TGI for the entry CO[C@@](c1ccccc1)(c1nc(C#N)c(N)o1)C(F)(F)F : > 100 µM

Value of measured TGI for the entry Oc1ccc(/C=N/Nc2nc3ccccc3s2)c(O)c1 : 88.1 µM

* * *

System: UO-31 renal
Assay overview: NCI tumour cell line growth inhibition, 48 h
For each record, write down the corresponding log10 TGI.
Values reflect log10 of reported TGI (µM).

Value of measured log10 TGI for the entry CCN(Cc1nc2cc(C(F)(F)F)ccc2nc1-c1ccccc1)c1ccc(OC)c(OC)c1 : 1.66

Value of measured log10 TGI for the entry C=CC[Se]C(=O)Cc1c(C)n(C(=O)c2ccc(Cl)cc2)c2ccc(OC)cc12 : 0.46

Value of measured log10 TGI for the entry COc1cc(-c2nn(C(=O)NS(=O)(=O)c3ccc(C)cc3)cc2-c2ccncc2)ccc1Cl : 1.20

Value of measured log10 TGI for the entry COc1ccc(NC(=O)Nc2ccc(Nc3nc(C)cc(Nc4ccc(C)cc4)n3)cc2)cc1 : 0.45

Value of measured log10 TGI for the entry COc1cc(/C=C2\CC3C4CC=C5C[C@@H](N6CCCC6)CC[C@]5(C)C4CC[C@]3(C)[C@H]2OC(C)=O)ccc1OCCN1CCCCC1 (stereo not given in full) : 0.45

* * *

Test system: MALME-3M melanoma
Assay overview: NCI tumour cell line growth inhibition, 48 h
For each record, write down the corresponding TGI.

Value of measured TGI for the entry CCCC(=O)NC(c1ccc2c(c1)OCO2)c1ccc2cccnc2c1O (centres undefined) : > 100 µM

Value of measured TGI for the entry Fc1ccc(F)c(C2SCc3nc4ccccc4n32)c1 (centres undefined) : > 100 µM

Value of measured TGI for the entry COc1ccc(CCNCc2cccc(OC)c2OC)cc1OC : > 100 µM

Value of measured TGI for the entry COc1cc2ccc1-c1cc(ccc1O)CC1c3cc4c(cc3CCN1C)Oc1c(OC)cc3c(c1O4)C(C2)N(C)CC3 (centres undefined) : 3.48 µM

Value of measured TGI for the entry CC(C)C[C@H](NC(=O)CCc1ccccc1)B(O)O : 32.9 µM

Value of measured TGI for the entry NC12CC3CC(C1)CC(Cl)(C3)C2 : > 100 µM

Value of measured TGI for the entry CO/C(=N\N=C\c1ccc(OC)cc1OC)c1ccncc1 : > 10 µM

Value of measured TGI for the entry O=C(CCCNC(=O)OCc1ccccc1)OCc1ccc2c(c1)C(=O)c1ccccc1C2=O : > 100 µM

Value of measured TGI for the entry CN(C)c1ccc2nc3c(C(=O)O)cc(=O)c(O)c-3oc2c1 : 31.7 µM

Value of measured TGI for the entry O=[N+]([O-])c1cc(Cl)cc2c1nc(NCCO)c1ccccc12 : 57.1 µM

Value of measured TGI for the entry C/C(=N\NC(=O)/C(C#N)=C\c1ccc(N(CCC#N)CCC#N)cc1)c1ccccc1 : > 10 µM

Value of measured TGI for the entry O=C(CC1(O)C(=O)Nc2ccc(Br)cc21)c1ccc(C(=O)NCC2CCC3(CC2)OOC2(CCCCC2)OO3)cc1 (centres undefined) : 6.63 µM

Value of measured TGI for the entry O=C(CSCC(=O)N/N=C/c1cccc(OCc2ccccc2)c1)N/N=C/c1cccc(OCc2ccccc2)c1 : > 100 µM

Value of measured TGI for the entry O=[N+]([O-])/C(Cl)=C(\Nc1ccccc1)C(Cl)=C(Cl)Cl : 45.9 µM

Value of measured TGI for the entry CN(C)c1ncnc2c1ncn2C1C=CC(COS(N)(=O)=O)C1 (centres undefined) : > 100 µM

Value of measured TGI for the entry COC(=O)[C@@H](Cc1c[nH]c2ccccc12)NC(=O)/C=C/c1ccccc1 : > 100 µM

Value of measured TGI for the entry O=C(/C=C/c1c(O)ccc2ccccc12)c1cccc2ccccc12 : > 100 µM

Value of measured TGI for the entry COC(=O)/C(C#N)=C1\NC(=O)CC(c2ccccc2)C1C#N (centres undefined) : > 100 µM

Value of measured TGI for the entry C/C(=N\NS(=O)(=O)c1ccc(C)cc1)C(CN(C)C)C(c1ccccc1)c1c(O)c2ccccc2oc1=O (centres undefined) : > 100 µM

Value of measured TGI for the entry CC1=CCC[C@@](C)(O)[C@@H]2C[C@H]3C(CSc4ccccc4)C(=O)O[C@H]3[C@@H](O2)[C@H](C)CCC1 (some centres undefined) : 32.1 µM

Value of measured TGI for the entry CCc1ccccc1-n1c2nc(=O)n(C)c(=O)c-2nc2ccccc21 : 18.2 µM

Value of measured TGI for the entry COc1ccc(/C=C/c2nc(=S)[nH][nH]2)cc1 : > 100 µM

Value of measured TGI for the entry Cc1nccc2c1cnc1ccnn12 : > 100 µM

Value of measured TGI for the entry CCOC(=O)c1cc(C2CCN(CC(C)CC)C2=S)c(C(=O)/C=C(/C)N)[nH]1 (centres undefined) : > 50 µM

Value of measured TGI for the entry O=c1cc(NCC2CCCCC2)[nH]c(=O)[nH]1 : > 100 µM

Value of measured TGI for the entry Nc1nc(Cl)cc(NCC2(CO)CCC2)n1 : > 100 µM

Value of measured TGI for the entry C=CC[Se]C(=O)Cc1c(C)n(C(=O)c2ccc(Cl)cc2)c2ccc(OC)cc12 : 3.45 µM

Value of measured TGI for the entry OCC(O)COc1c(Cl)ccc(Cl)c1Cl (centres undefined) : > 100 µM

Value of measured TGI for the entry COc1ccc(CNc2nc(NCc3ccc(OC)cc3)nc(NC(C)C)n2)cc1 : 22.8 µM

Value of measured TGI for the entry Cc1ccccc1-n1c(/C=C\c2ccccn2)nc2ccccc2c1=O : 42.1 µM

Value of measured TGI for the entry O=C1/C(=C/c2ccc([N+](=O)[O-])s2)Oc2ccccc21 : 3.92 µM

Value of measured TGI for the entry CN(C)c1ccc(/C=C2\N=C(N/N=C/c3ccccc3)NC2=O)cc1 : > 100 µM

Value of measured TGI for the entry CC1(C)OC(=O)C(C)(C)OC1=O : > 100 µM

Value of measured TGI for the entry N#CCC(=O)N/N=C1/C(=O)NC(=O)C(=O)C1c1nc2ccccc2s1 (centres undefined) : > 100 µM

Value of measured TGI for the entry CN(/N=C/c1ccnc2ccccc12)c1ccc([N+](=O)[O-])cc1[N+](=O)[O-] : > 100 µM

Value of measured TGI for the entry NC(=O)c1csc(CCCCCCc2nc(C(N)=O)cs2)n1 : > 100 µM

Value of measured TGI for the entry CC(=O)NCCCCCCNC(C)=O : 7700 µM

Value of measured TGI for the entry COc1cc(OC)c(OC)cc1/C=C1\C=Cc2ccccc21 : 56.8 µM

Value of measured TGI for the entry C#CCCOC1(OC)N=NC(C)(C)O1 (centres undefined) : > 100 µM

Value of measured TGI for the entry CS(=O)c1ccc(-c2nc(-c3ccc(F)cc3)c(-c3ccncc3)[nH]2)cc1 (centres undefined) : 64.9 µM

Value of measured TGI for the entry Cc1[nH]nc2c1N=C(c1ccccc1F)c1cc(C#N)ccc1N2 : > 25 µM

Value of measured TGI for the entry C#CCOc1ccc2ncnc(Nc3ccc(NC(=O)CCl)cc3)c2c1 : 18.1 µM

Value of measured TGI for the entry COc1cccc(/C(C=O)=C(\Cl)c2ccc(OC)c(OC)c2)c1 : 29 µM

Value of measured TGI for the entry CCOC(=O)CNC(=O)CCCn1c(=O)c2c3ccccc3n(C)c2n2nnc(-c3ccccc3)c12 : > 50 µM
